Test system: rodent lifetime carcinogenesis bioassay, tumor incidence TD50
Assay: carcinogenic potency in animals, long-term in vivo studies, CPDB compilation (AID 1745844)
Conditions: mouse; strain B6C3F1; females; inhaled; site: all sites; lesion: hemangiosarcoma; dosed 104 weeks; study length 104 weeks
property: TD50

entry smiles: C=CC(=C)Cl
property: TD50
reported measurement: 22.2 mg/kg/day

* * *

Tested on: rodent lifetime carcinogenesis bioassay, tumor incidence TD50
Assay: carcinogenic potency in animals, long-term in vivo studies, CPDB compilation (AID 1745844)
Conditions: mouse; strain BALB/c; females; in drinking water; site: lung; lesion: adenoma; dosed 85 weeks; study length 85 weeks
property: TD50

entry smiles: CN(C)N=O
property: TD50
reported measurement: 0.324 mg/kg/day

* * *

System: rodent lifetime carcinogenesis bioassay, tumor incidence TD50
Assay: carcinogenic potency in animals, long-term in vivo studies, CPDB compilation (AID 1745844)
Settings: rat; strain Fischer 344; males; by gavage; site: lung; lesion: several types; types named in the paper; dosed 30 weeks; study length 65 weeks
property: TD50

entry smiles: CN(C)N=O
property: TD50
reported measurement: 0.0765 mg/kg/day

* * *

Tested on: rodent lifetime carcinogenesis bioassay, tumor incidence TD50
Assay: carcinogenic potency in animals, long-term in vivo studies, CPDB compilation (AID 1745844)
Settings: rat; strain Fischer 344; males; by gavage; site: liver; lesion: hepatocellular carcinoma + neoplastic nodule; dosed 104 weeks; study length 105 weeks

compound: CCCC(Cl)CCCC(Cl)CCC(Cl)CCC(Cl)CCC(Cl)CCCC(Cl)CCC (stereo unspecified)
TD50: 123 mg/kg/day

* * *

Tested on: rodent lifetime carcinogenesis bioassay, tumor incidence TD50
Assay: carcinogenic potency in animals, long-term in vivo studies, CPDB compilation (AID 1745844)
Conditions: mouse; strain B6C3F1; females; in feed; site: Harderian gland + lung + subcutaneous tissue; lesion: adenoma + adenoma, bilateral + carcinoma + alveolar/bronchiolar adenoma + alveolar/bronchiolar carcinoma + fibrosarcoma + sarcoma; dosed 104 weeks; study length 106 weeks

entry smiles: OCC(CO)(CBr)CBr
output unit: mg/kg/day
TD50: 67.8

* * *

System: rodent lifetime carcinogenesis bioassay, tumor incidence TD50
Assay: carcinogenic potency in animals, long-term in vivo studies, CPDB compilation (AID 1745844)
Conditions: mouse; strain Swiss; females; inhaled; site: mammary gland; lesion: carcinoma; dosed 78 weeks; study length 104 weeks

entry smiles: C=CCl
TD50: 32.2 mg/kg/day

* * *

Test system: rodent lifetime carcinogenesis bioassay, tumor incidence TD50
Test: carcinogenic potency in animals, long-term in vivo studies, CPDB compilation (AID 1745844)
Conditions: rat; strain Fischer 344; males; by gavage; site: preputial gland; lesion: adenoma + carcinoma; dosed 94 weeks; study length 104 weeks

entry smiles: ClCC(Cl)CCl
experimental system: rodent lifetime carcinogenesis bioassay, tumor incidence TD50
TD50: 9.59 mg/kg/day

* * *

Test system: rodent lifetime carcinogenesis bioassay, tumor incidence TD50
Test: carcinogenic potency in animals, long-term in vivo studies, CPDB compilation (AID 1745844)
Details: mouse; strain B6C3F1; males; in feed; site: kidney cortex; lesion: adenoma; dosed 103 weeks; study length 104 weeks

entry smiles: Cc1ccc(N=Nc2c(O)ccc3ccccc23)c([N+](=O)[O-])c1
experimental system: rodent lifetime carcinogenesis bioassay, tumor incidence TD50
TD50: 35500 mg/kg/day

* * *

Test system: rodent lifetime carcinogenesis bioassay, tumor incidence TD50
Assay: carcinogenic potency in animals, long-term in vivo studies, CPDB compilation (AID 1745844)
Conditions: rat; strain F344/DuCrj; females; in feed; site: urinary bladder; lesion: transitional-cell papilloma; dosed 104 weeks; study length 104 weeks
Activity calls are given as the source filed them. The rule behind the calls is not given here.

entry smiles: O=c1cc[nH]c(=O)[nH]1
experimental system: rodent lifetime carcinogenesis bioassay, tumor incidence TD50
TD50: 4260 mg/kg/day
//
entry smiles: c1ccc2[nH]c(-c3cscn3)nc2c1
experimental system: rodent lifetime carcinogenesis bioassay, tumor incidence TD50
TD50: 7640 mg/kg/day (inactive)

* * *

System: rodent lifetime carcinogenesis bioassay, tumor incidence TD50
Assay: carcinogenic potency in animals, long-term in vivo studies, CPDB compilation (AID 1745844)
Conditions: rat; strain Charles River CD (Sprague-Dawley); males; i.p.; site: all sites; lesion: plasmacytoma; dosed 26 weeks; study length 78 weeks
Numbered stars: 1 amine (or outer) side, 2 acyl side, 3 side chain; on linkers, the order of the positions; unused ones are H or OH. Bridge positions count the residues as written; N and C are the ends. Square brackets hold non-standard residues; d marks the D form. Peptide text beside a SMILES is read from it. I, II: the chains in the order shown. Actinocin(9to1) = Cc1c2oc3c(C)ccc(C(=O)[*:1])c3nc-2c(C(=O)[*:2])c(N)c1=O; NMeV = CN[C@H](C(=O)O)C(C)C; Sar = CNCC(=O)O
property: TD50 (mg/kg/day)

compound: Cc1c2oc3c(C)ccc(C(=O)N[C@@H]4C(=O)N[C@H](C(C)C)C(=O)N5CCC[C@H]5C(=O)N(C)CC(=O)N(C)[C@@H](C(C)C)C(=O)O[C@@H]4C)c3nc-2c(C(=O)N[C@@H]2C(=O)N[C@H](C(C)C)C(=O)N3CCC[C@H]3C(=O)N(C)CC(=O)N(C)[C@@H](C(C)C)C(=O)O[C@@H]2C)c(N)c1=O (I: T[dV]P[Sar][NMeV] / II: T[dV]P[Sar][NMeV]; ester I:1-I:C, II:1-II:C; linker I:N-II:N via Actinocin(9to1))
property: TD50
reported measurement: 0.0201

* * *

Tested on: rodent lifetime carcinogenesis bioassay, tumor incidence TD50
Assay: carcinogenic potency in animals, long-term in vivo studies, CPDB compilation (AID 1745844)
Conditions: rat; strain Wistar; females; in feed; site: several sites; sites named in the paper; lesion: carcinoma; dosed 40 weeks; study length 89 weeks
property: TD50

entry smiles: O=[N+]([O-])c1ccc(-c2cnc3ccccn23)o1
experimental system: rodent lifetime carcinogenesis bioassay, tumor incidence TD50
reported measurement: 443 mg/kg/day

* * *

Tested on: rodent lifetime carcinogenesis bioassay, tumor incidence TD50
Assay: carcinogenic potency in animals, long-term in vivo studies, CPDB compilation (AID 1745844)
Details: mouse; strain Swiss; males; by gavage; site: liver; lesion: several types; types named in the paper; dosed 52 weeks; study length 128 weeks

entry smiles: CCCCC/C=N/N(C)C=O
TD50: 31.4 mg/kg/day

* * *

System: rodent lifetime carcinogenesis bioassay, tumor incidence TD50
Assay: carcinogenic potency in animals, long-term in vivo studies, CPDB compilation (AID 1745844)
Conditions: mouse; strain B6C3F1; males; by gavage; site: liver; lesion: hepatocellular adenoma; dosed 103 weeks; study length 106 weeks
property: TD50 (mg/kg/day)

entry smiles: C=CCOC(=O)c1ccccc1C(=O)OCC=C
output unit: mg/kg/day
reported measurement: 2450

* * *

System: rodent lifetime carcinogenesis bioassay, tumor incidence TD50
Assay: carcinogenic potency in animals, long-term in vivo studies, CPDB compilation (AID 1745844)
Details: rat; strain Osborne-Mendel; both sexes; in feed; site: any site (literature study); lesion: several types; types named in the paper; dosed 104 weeks; study length 104 weeks
Activity calls are given as the source filed them. The rule behind the calls is not given here.

entry smiles: O=C1C(c2[nH]c3ccc(S(=O)(=O)O)cc3c2O)=Nc2ccc(S(=O)(=O)O)cc21
TD50: 5430 mg/kg/day (inactive)

* * *

Tested on: rodent lifetime carcinogenesis bioassay, tumor incidence TD50
Assay: carcinogenic potency in animals, long-term in vivo studies, CPDB compilation (AID 1745844)
Settings: mouse; strain B6C3F1; females; in feed; site: liver; lesion: hepatocellular adenoma + hepatocellular carcinoma + neoplastic nodule; dosed 90 weeks; study length 105 weeks

entry smiles: CC(=O)Nc1ccc(C(=O)CCl)cc1
experimental system: rodent lifetime carcinogenesis bioassay, tumor incidence TD50
TD50, mg/kg/day: 4700

* * *

System: rodent lifetime carcinogenesis bioassay, tumor incidence TD50
Test: carcinogenic potency in animals, long-term in vivo studies, CPDB compilation (AID 1745844)
Conditions: hamster; strain Syrian Golden; males; in drinking water; site: liver; lesion: hepatocellular adenoma; dosed 104 weeks; study length 104 weeks
property: TD50 (mg/kg/day)

entry smiles: O=S(=O)(O)O
property: TD50
reported measurement: 2590

* * *

System: rodent lifetime carcinogenesis bioassay, tumor incidence TD50
Test: carcinogenic potency in animals, long-term in vivo studies, CPDB compilation (AID 1745844)
Conditions: rat; strain F344/DuCrj; females; inhaled; site: spleen; lesion: mononuclear-cell leukemia; dosed 104 weeks; study length 104 weeks

entry smiles: ClC(Cl)=C(Cl)Cl
experimental system: rodent lifetime carcinogenesis bioassay, tumor incidence TD50
TD50: 1080 mg/kg/day

* * *

Tested on: rodent lifetime carcinogenesis bioassay, tumor incidence TD50
Test: carcinogenic potency in animals, long-term in vivo studies, CPDB compilation (AID 1745844)
Conditions: rat; strain Fischer 344; males; by gavage; site: preputial gland; lesion: adenoma; dosed 94 weeks; study length 104 weeks

entry smiles: ClCC(Cl)CCl
TD50: 14 mg/kg/day

* * *

Test system: rodent lifetime carcinogenesis bioassay, tumor incidence TD50
Test: carcinogenic potency in animals, long-term in vivo studies, CPDB compilation (AID 1745844)
Conditions: rat; strain MRC-Wistar; males; in drinking water; site: forestomach; lesion: squamous-cell carcinoma; dosed 52 weeks; study length 130 weeks

entry smiles: CN(N=O)C(=O)c1ccccc1
TD50 [mg/kg/day]: 9.66
